- Assay Remarks: amyloid nucleation score (Sup35N fusion, yeast selection) (log enrichment); library NNK1; higher = more nucleation; inactive = no reads after selection;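 note: zero at mode of non-aggregating sequences after 7 days selection at 30°C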
Property: amyloid nucleation score; scope: individual substances

Substance	amyloid nucleation score
WDAHGDIVKG	0.877
SVTDRKV	0.468
PEAGGLHARYVYFVWNSAPC	2.69
RLAFLIDRWVALRNEWRKGV	-0.791
THWLNRTGCVRTHPVQSGKE	-1.09
LQNSDVFHADLQIISPTFCP	-0.826
IFLYDRLNGDPFSSRW	0.729
RGYLMHMTVAKILSVVKKRA	-2.16
LTLICSSGEC	2.14
QYSCGSYYLERSGNVSRRKS	-0.084
IGHVNTYCCIADWSWVRGAG	8.89
MPKCSTLNTKVFRPMVWFSV	1.43
VLWPLTISLWC	-0.236
ASFSLDYSFQMPYILRWFIR	1.03
WDALLPLPAEFAYRATTMHA	0.444
TRLCWFWFNA	0.066
FCDPVYMPSERFWNAYMCTL	1.19
SGEDVSGCQDLFALVPMGQG	0.495
FYFRHSVLMCKHLFQFDYKE	0.668
WTVMVNICLGHCRVLSQLVP	1.79
PKDLIVTTLHAWCDRHSYT	-0.49
RPCFGFLGYNNAV	0.109
LPLICRSSGLLV	-0.405
LCITRT	-0.521
LRILVITYILCT	-0.331
LYIFGAY	-1.26
KWVEIITLCMEIWNLYIVCE	-0.048
WGTPLMV	0.31
YKSLLGRAVMFKRHQPGPRA	0.248
CLTIGCWRFSF	4.57

---

- Assay Remarks: amyloid nucleation score (Sup35N fusion, yeast selection) (log enrichment); library NNK3; higher = more nucleation; inactive = no reads after selection
Readout Name: amyloid nucleation score

Ordered Residues	Value Observed
FVSYRESKKDMQACCALCRS	0.965
QMGVVNLRAKGQQCAQRQSK	inactive
CMTLYLLSLSC	inactive
RVRCDWCFGRGVCMTAIRQD	-0.147
SFNRISIFYVNWCTAMNFVY	1.13
SYLYLCRIKVDLPFWSDRLV	inactive
YLVQNFKT	-0.401
VVYDVTVKKSLDIRFPLRIP	inactive

---

Property: amyloid nucleation score; scope: individual sequences
- Assay Remarks: amyloid nucleation score (Sup35N fusion, yeast selection) (log enrichment); library NNK2; higher = more nucleation; inactive = no reads after selection

Ordered Residues	amyloid nucleation score
FCESCKWNL	1.29
VYIIVFRIWLPLHFWSSTLM	-0.354
IALQDSDFSLLWFMHVCWDE	-0.463
MGQLDGKACSICRSLVIIVY	2.23
VIHMVPMTEGGLPCTV	-0.139
VIKCLVPSLIKSFRRHWFNT	-0.708
LYPWRMTCYK	-1.34
RSTLPGRRFFIGNILYN	-0.578

---

Property: amyloid nucleation score; scope: individual substances
- Assay Remarks: amyloid nucleation score (Sup35N fusion, yeast selection) (log enrichment); library NNK1; higher = more nucleation; inactive = no reads after selection

Substance	amyloid nucleation score
SNNDFLTSPAFGLLTG	0.066
REYETWLQSQRQNLSDLQK	0.173
GIKFNWENLARVLESNVFF	1.53
NWGVIVMFTYYRSSSGNLAC	1.35
NRYPTLFWCVRNRVWECLRV	0.392
PYLGNLNSLQGFYLS	0.176
VGRHALGTSRGKRL	-0.307
FLRVILRVYLAVLRGNRQCN	-0.716
LMWVSRR	0.13
ACVMRIDAFFMTISVRLLRL	1.79
NWHAVNCRSPST	1.07

---

- Assay Remarks: amyloid nucleation score (Sup35N fusion, yeast selection) (log enrichment); library NNK1; higher = more nucleation; inactive = no reads after selection
Property: amyloid nucleation score; scope: individual sequences
Readout Name: amyloid nucleation score

Ordered Residues	Readout Name	Value Observed
TYNEDEVPCLMLASDVRFSS	amyloid nucleation score	0.372
TEGTYDNSSCHSDALGECLW	amyloid nucleation score	0.281
NDDVSVSVSWPDMEVRWK	amyloid nucleation score	-0.179
LYNSRTWMIGIGSPAQIV	amyloid nucleation score	-0.731
SGPHGRFDARSMLAIL	amyloid nucleation score	-0.773

---

Property: amyloid nucleation score; scope: individual substances
- Assay Remarks: amyloid nucleation score (Sup35N fusion, yeast selection) (log enrichment); library NNK2; higher = more nucleation; inactive = no reads after selection
Readout Name: amyloid nucleation score

Substance	Value Observed
VVYRLDFRPFNSPPCMRSAS	0.074
CPHGCIQTARYQQ	1.19
SPSTAMFGPMYSVCIHCEYL	7.39
MEVADC	0.591
RIRCIVGSVPCMAASKHDGR	0.783
FCYAYTFMHEYLRGC	0.737
MPYTCMGVFVAHMEATE	0.316
FHNLASFVRKSRVYQHKRNA	-0.231
NRNKAASYNGLYCFDPAIVD	-1.09
NDIMYSVSSYCWWSFRSSVF	2.06
FWVLDSSADYRAS	5.62
QVAIPHHTRIETASARRVHT	1.09
YICSFYEADRSTRCFLIFFF	-1.23
LFNGECGICDQEKYLVRQTV	0.065
AHHYSESRGFRCCLTSGYFC	0.818
IVMVPFLTIPVLYLVVMSSL	-0.788
PEYPVQIYMSMDL	-1.33
ETTNTQVNAIVRNFGQ	0.002
YVSLNNRQKFLAARLPKLEG	-0.51
VMGCFSIGGLGMGVPMVYSR	0.651
MTSRVETSKCNCSLQVWRPL	0.579
RVGFNNRNVVD	0.266

---

- Assay Remarks: amyloid nucleation score (Sup35N fusion, yeast selection) (log enrichment); library NNK1; higher = more nucleation; inactive = no reads after selection
Property: amyloid nucleation score; scope: individual substances

Substance	amyloid nucleation score
YFMFSLCSYSNYWLRWGFV	0.121
VPTSSFGGFVYVGVRVMCS	-0.487
DIRIPMHLSIDLQVVLSLRY	0.172
MCLFENMFDHFSGSLQSHGG	0.318
DSSRNGKF	-0.563
IECCFAYGRYLMWVGMYGSK	0.79
VDISIVWDVPHQVLTGGFY	-0.531
MRLTNGSCHFVLF	-0.745
SCPKVITNVLSSKTYPRMVG	1.11
DIFVLMRAMWHRGMI	0.857
YVLSFYHQVGPALGFIRQWI	-1.04
TTLWLVPYVC	0.529
RRYWVIIIEVAGSRSVETPV	-0.823
IAAYLVVDILPGSI	-0.036
NDVPLLWVISASCG	1.02
HFRDCVPYFMVSRSRGELGE	-0.42
FVLRTFQVDNSRQDTTNVST	0.309
KILVVGHRESIMCTDSYIMW	-0.294
SKTGRGTLVMEVSRCEVYDF	0.027
VWFFQNNVNFSDKQ	8.01
VGLERSWGEAKAVNMQRHGS	0.346
SHELVKHGYKY	-0.436
YCDRDLKNKVLSNV	-0.132
ISPRHNYPQILMVLLIKVYF	-1.33
CAIWFRTEWFWTVCTWVSGH	-0.201
IVNFRVNRPSL	0.205
LIGRRGLHYLF	-0.186
LGASGLGCIF	4.56
TKILRP	0.33
QNRSHKPEFGRMPASQPVTN	0.447
ISFDSLWDCSYS	-0.232
VIKDFNDNYTGFRHYSKILI	-0.634

---

- Assay Remarks: amyloid nucleation score (Sup35N fusion, yeast selection) (log enrichment); library NNK2; higher = more nucleation; inactive = no reads after selection
Readout Name: amyloid nucleation score

Substance	Value Observed
IFPGILH	-1.83
CHSRLLEYGENCNRIEYCLC	-0.459
LFSLPPCFN	1.5
CSVNNSSLCIVVVAWFCGLD	0.711
SSRTMRFNVRG	0.722
LWYGWCKRLYFVRCHYRVSM	-0.543
RAMVPHHNADGCGLLQDTQ	1.14
PSCDVFVKIRLHFAFVKNFI	inactive
SGFGCLFTMW	1.63
RYRVRKCSLANWDEWTTIGC	1.67
VATGLRAWWWTGKEEVGLVS	1.69
AWSVIEGFQHREAFVTYRGQ	3.7
LKCPGLTREGLSPYKSSLPN	-0.202
FGYMCEAPHRVDFRLFELLQ	inactive
NLSNELSCI	inactive
DYKDYNLCGITHMESF	-0.442
VAYYEDVLSSYFIERW	-0.392
STTHHARRFVSHESACLGAV	1.11
DAWKLNTDIYSANRYFIDLV	-0.651
GKFLCDV	0.775
ILFGFSLPGSCDNWDRDAKG	-1.15
TLMCFYYFEQ	9.39
YLNGLTYWDIMLPWAII	-0.324
SMRYDRDNHKHPFNIEAMRY	-0.096
IFFLSNLKRKPDDRGLVHKN	2.57
LCPLTHFFVFEVYFSDPYRE	5.69
VSVVFNARPHRDSHNPSAER	6.13
GLTVHTVWLA	0.189
SSYTKMC	-0.934
EVEIEE	-0.576
DLIYGGYST	inactive
LFSCGKSMQLVMWYGLSFCG	0.306
PMFNEHRFSR	2.37
VYTTLPYSFGGYNCYMSSRL	inactive
NQLLTVSWYSL	2.76
RDLSTGSPILEFHRCTRISG	-0.172
VVYPCFSIMLQMEVLYIVFI	1.33
PFMLSVHFALYMSDYIYMHL	-0.02
NIVVVYIEFSGVHPTLVLLW	-0.42
LNSMTILLSN	0.54
VDRNVTSRSQVTSSFSWDIV	inactive
AGDAAN	inactive
LCYMGRVA	0.224
SVKLHSGGSWLRTWDWPRVC	1.55
RMYLVGMLMHSLLEEMSKTA	4.76
SDEIECCKYFFGYL	5.35
RLIGLVSRVEHVYIAVKRWE	0.543
YLCVYIRLYFMPLRYWKKMC	-0.606
PTYFWKQQCWVHYICWIMSY	-1.15
KYNQPIMNSSSRGADCGCVR	4.16
CRVRVTFG	-0.481
HAACCASNLLWGRFFWSCAD	2.74
CNYVQIMLS	2.81
NWLKYFYVSDFQWWKGYPHV	-0.067
LNRDFMVHLSCGTWPSARKW	0.067
QYGCMEYRHNKCNQREVCRY	0.281
AEAYGTSSRRSCCRGRVV	0.476
LATTVYFGAMGHVS	-1.38
TACVSWGPSYWV	inactive
YKTFFLVASAKVNEAPGQRG	inactive
IYYLRLWSM	inactive
LLQKFVMGGEVRRESGGVRC	0.726
PKRSCLVLGYNIVITDMQAR	6.28
NEFRDIYGFSVSKLPTGGIC	-1.17
YVNPKVAWAGIDSAAEEDSD	0.047
KTFRCRRCGNN	0.721
VFFGVQNKR	3.04
